Recorded measurements of pKd, one per entry
target: TJP2_1, Q9UDY2; test: holdup assay; set-up: key: below the threshold = too weak to quantify, mostly under pKd 3.1 to 4; details: plain residues with an end cap or a label only (N-terminal biotin on a linker: ttds)
Sequence (Q9UDY2 24-128): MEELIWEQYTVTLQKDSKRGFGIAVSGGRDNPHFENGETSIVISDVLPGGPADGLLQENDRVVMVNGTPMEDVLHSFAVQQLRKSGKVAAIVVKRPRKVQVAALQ
Just the number, please, no unit after it.

>>> reportedvalue("SVWLRKETRV [CYSLTR2, Q9NS75]")
4.45

Note: attention shifts to another entry.
Kindly note the recorded pKd for SSRTRRETQL [HPV16-E6, P03126] , which is 4.12
